Experiment: clinical
Settings: human, in vivo, iv
Measured Property: fraction unbound

Compound: C[C@@H](O)[C@H]1C(=O)N2C(C(=O)[O-])=C(SC3Cn4cnc[n+]4C3)[C@H](C)[C@H]12 (stereo partly drawn) [BIAPENEM]
Measured Property: fraction unbound
Recorded Result: 0.92
--
Compound: CO/N=C(\C(=O)N[C@@H]1C(=O)N2C(C(=O)O)=C(C)CS[C@H]12)c1csc(N)n1
Measured Property: fraction unbound
Recorded Result: 0.78
--
Compound: CCCCCN(C)CCC(O)(P(=O)(O)O)P(=O)(O)O [IBANDRONIC ACID]
Measured Property: fraction unbound
Recorded Result: 0.15
--
Compound: CC(=O)N(CC(O)CO)c1c(I)c(C(=O)NCC(O)CO)c(I)c(C(=O)NCC(O)CO)c1I (stereo not drawn) [IOHEXOL]
Measured Property: fraction unbound
Recorded Result: 1
--
Compound: COC(=O)[C@H]1[C@@H](OC(=O)c2ccccc2)C[C@@H]2CC[C@H]1N2C [COCAINE]
Measured Property: fraction unbound
Recorded Result: 0.12
--
Compound: NCc1ccccc1CC(=O)N[C@@H]1C(=O)N2C(C(=O)O)=C(CSc3nnnn3CC(=O)O)CS[C@H]12 [CEFORANIDE]
Measured Property: fraction unbound
Recorded Result: 0.19
--
Compound: CCc1nc(N)nc(N)c1-c1ccc(Cl)cc1 [PYRIMETHAMINE]
Measured Property: fraction unbound
Recorded Result: 0.095
--
Compound: Oc1ccc2c(c1)[C@@]13CCCC[C@@]1(O)[C@@H](C2)N(CC1CCC1)CC3 [BUTORPHANOL]
Measured Property: fraction unbound
Recorded Result: 0.17
